Source: patent US20240116985A1

# Lookup of reported NanoBRET Abs IC50 keyed by entry
Biological target: T1, B-cat-Halo (beta-catenin HaloTag NanoBRET construct expressed in HEK293 cells) (UniProt P35222 1-781)
T1 sequence (looked up): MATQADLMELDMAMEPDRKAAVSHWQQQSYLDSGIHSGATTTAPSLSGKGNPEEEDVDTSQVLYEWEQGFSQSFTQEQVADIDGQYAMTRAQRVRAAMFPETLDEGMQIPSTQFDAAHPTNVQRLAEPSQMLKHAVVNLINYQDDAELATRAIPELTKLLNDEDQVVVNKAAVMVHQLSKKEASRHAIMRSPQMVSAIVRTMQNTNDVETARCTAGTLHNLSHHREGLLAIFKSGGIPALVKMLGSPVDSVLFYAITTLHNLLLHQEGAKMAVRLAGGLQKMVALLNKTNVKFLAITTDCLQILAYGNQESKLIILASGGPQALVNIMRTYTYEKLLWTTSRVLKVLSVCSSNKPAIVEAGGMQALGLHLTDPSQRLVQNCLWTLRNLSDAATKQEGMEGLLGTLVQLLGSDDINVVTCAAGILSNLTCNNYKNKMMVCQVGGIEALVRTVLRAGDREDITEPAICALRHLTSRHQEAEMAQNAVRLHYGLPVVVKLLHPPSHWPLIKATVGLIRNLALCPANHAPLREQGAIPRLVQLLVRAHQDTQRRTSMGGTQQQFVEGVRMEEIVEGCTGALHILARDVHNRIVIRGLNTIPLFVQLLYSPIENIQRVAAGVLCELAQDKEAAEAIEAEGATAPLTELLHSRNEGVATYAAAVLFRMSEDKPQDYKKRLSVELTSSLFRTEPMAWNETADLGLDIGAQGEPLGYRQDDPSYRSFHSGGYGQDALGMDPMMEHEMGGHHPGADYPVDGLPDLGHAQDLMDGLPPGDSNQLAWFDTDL
Experiment: cell-based or functional assay
Starred links: 1 amine or outer side, 2 acyl side, 3 side chain; linkers in the order of their positions; H or OH if unused. Positions of bridges follow the written chain, without caps; N, C: chain ends. Non-standard residues stand in square brackets, D forms with d. Primed or numbered codes have the meaning given here. B5(5) = 2,2-bis(4-pentenyl)glycine, 2-amino-2-(pent-4-en-1-yl)hept-6-enoic acid (stitching residue), C=CCCCC(CCCC=C)(N[*:1])C(=O)[*:2]; PyrS2 = (S)-3-amino-1-((pent-4-en-1-yloxy)carbonyl)pyrrolidine-3-carboxylic acid, C=CCCCOC(=O)N1CC[C@@](N[*:1])(C(=O)[*:2])C1; B5(12) = 2-amino-2-(pent-4-en-1-yl)hept-6-enoic acid (two olefin side chains), C=CCCCC(CCCC=C)(N[*:1])C(=O)[*:2]; Phe(3-COOH) = N[C@@H](Cc1cccc(C(=O)O)c1)C(=O)O; Phe(2-Cl) = N[C@@H](Cc1ccccc1Cl)C(=O)O; Bta = N[C@@H](Cc1csc2ccccc12)C(=O)O; αAllylPro = C=CC[C@@]1(C(=O)O)CCCN1; tBuAla = CC(C)(C)C[C@H](N)C(=O)O; 3Thi = N[C@@H](Cc1ccsc1)C(=O)O; Thr(ol) = C[C@@H](O)[C@H](N)CO; PyrS2(4) = not defined here

Lab book: NanoBRET Abs IC50 of Ac-[αAllylPro]D[tBuAla][B5(5)]DRAAFN[PyrS2][3Thi][Bta]Q-NH2 (staple 1-4, 4-11; not fully specified; printed as Ac-PL3-Asp-Npg-B5-Asp-Arg-Ala-Ala-Phe-Asn-PyrS2-3Thi-BztA-Gln-NH2) [I-1890] noted as > 20 µM

Kindly consider the entry below.
Lab book: NanoBRET Abs IC50 of Ac-[αAllylPro]D[tBuAla][B5(12)]D[Phe(3-COOH)]AAFL[PyrS2(4)][Phe(2-Cl)][Bta]S[Thr(ol)] (staple 1-4, 4-11; not fully specified; printed as Ac-PL3-Asp-Npg-B5-Asp-3COOHF-Ala-Ala-Phe-Leu-PyrS2-2C1F-BztA-Ser-Thro1; reading uncertain) [I-1905] noted as 9.7 µM
